- Test system: LXRb homodimer (NR concentration 270 nM)
- ASSAY_NOTES: PBM binding z-score (relative to random genomic background probes); higher = stronger binding; sequences stand for … in GC…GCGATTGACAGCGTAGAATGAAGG
# PBM binding z-score values compiled below
RECORDED_METRIC: PBM binding z-score

CONSTRUCT_SEQUENCE	REPORTED_MEASUREMENT
ATCTCTAGGTAATCAAGTTCAGTGAATGCCGAAC	0.711
GGAACGAGGGCAAGTTGAAAGCAGAGTTTGATGG	-0.789
ACTTACGGGGCAACGAGGTTATAGCACGCGTATA	0.511
CTCGAAAGGTCGTGCCCAGGTGAGTATACCAAAC	0.542
CGTCCAAGGTCATAGGAGGTCCGTGAAGACAGAT	0.8
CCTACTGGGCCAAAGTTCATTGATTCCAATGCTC	0.0133
CCTTACGGGTCAAGTTTATAGCACGGGTGGTACG	0.604
TCATATAGGTAAACCGGTGAAAGTCCGTAAGTTA	-0.352
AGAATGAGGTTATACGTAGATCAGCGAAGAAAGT	-0.284
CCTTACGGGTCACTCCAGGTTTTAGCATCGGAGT	-0.172
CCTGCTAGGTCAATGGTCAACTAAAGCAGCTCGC	-0.0517
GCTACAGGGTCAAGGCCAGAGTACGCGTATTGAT	-0.375

====

- System: RARa:RXR (NR concentration 270 nM, RXRa partner concentration 90 nM)
- ASSAY_NOTES: PBM binding z-score (relative to random genomic background probes); higher = stronger binding; sequences stand for … in GC…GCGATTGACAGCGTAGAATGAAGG
# PBM binding z-score values compiled below

CONSTRUCT_SEQUENCE	TARGET_OR_SYSTEM	PBM binding z-score
GCTGCTATGTCAGGTTGGTCAGCTAACGGGTACG	RARa:RXR (NR concentration 270 nM, RXRa partner concentration 90 nM)	-0.149
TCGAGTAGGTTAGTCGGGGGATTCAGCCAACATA	RARa:RXR (NR concentration 270 nM, RXRa partner concentration 90 nM)	0.615
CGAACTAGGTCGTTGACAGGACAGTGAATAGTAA	RARa:RXR (NR concentration 270 nM, RXRa partner concentration 90 nM)	0.276
AGAACGAGGGCAATGACTTGATAGCACGGGTGGC	RARa:RXR (NR concentration 270 nM, RXRa partner concentration 90 nM)	0.436
TCTTGTAGATTAGCAGGTTAAGAAAGCTGGCCAA	RARa:RXR (NR concentration 270 nM, RXRa partner concentration 90 nM)	0.552
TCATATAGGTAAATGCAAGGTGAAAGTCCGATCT	RARa:RXR (NR concentration 270 nM, RXRa partner concentration 90 nM)	1.86

====

- Test system: PPARg:RXRa IVT, anti-PPARg (NR concentration 270 nM, RXRa partner concentration 90 nM)
- ASSAY_NOTES: PBM binding z-score (relative to random genomic background probes); higher = stronger binding; sequences stand for … in GC…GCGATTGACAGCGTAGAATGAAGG
PBM binding z-score vs 4: at or above is y, below is n.

CONSTRUCT_SEQUENCE	TARGET_OR_SYSTEM	GROUP
TAGCCTGGGTCATGCGGGCCAGTATAGTGTCGGC	PPARg:RXRa IVT, anti-PPARg (NR concentration 270 nM, RXRa partner concentration 90 nM)	n
TCAGACAGGTGCAGGTAACTCAGGTACGCAGTCG	PPARg:RXRa IVT, anti-PPARg (NR concentration 270 nM, RXRa partner concentration 90 nM)	n
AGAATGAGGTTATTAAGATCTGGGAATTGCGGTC	PPARg:RXRa IVT, anti-PPARg (NR concentration 270 nM, RXRa partner concentration 90 nM)	n
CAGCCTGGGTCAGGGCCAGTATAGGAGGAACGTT	PPARg:RXRa IVT, anti-PPARg (NR concentration 270 nM, RXRa partner concentration 90 nM)	n
GATACAGGGTCACCTAGAGGCCAGAGTATGGAAA	PPARg:RXRa IVT, anti-PPARg (NR concentration 270 nM, RXRa partner concentration 90 nM)	y
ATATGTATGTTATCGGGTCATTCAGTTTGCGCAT	PPARg:RXRa IVT, anti-PPARg (NR concentration 270 nM, RXRa partner concentration 90 nM)	y
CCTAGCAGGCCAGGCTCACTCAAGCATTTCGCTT	PPARg:RXRa IVT, anti-PPARg (NR concentration 270 nM, RXRa partner concentration 90 nM)	n
TCATATAGGTAAATGCTAGGTGAGAGTCCGATCT	PPARg:RXRa IVT, anti-PPARg (NR concentration 270 nM, RXRa partner concentration 90 nM)	n
CCGACTGGGGCAAGTTTACCATAACGCACAGCCA	PPARg:RXRa IVT, anti-PPARg (NR concentration 270 nM, RXRa partner concentration 90 nM)	n
CCTACTGGGCCAAGGTCGTTGATCAGTCAAAGCA	PPARg:RXRa IVT, anti-PPARg (NR concentration 270 nM, RXRa partner concentration 90 nM)	n
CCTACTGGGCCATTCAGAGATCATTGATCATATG	PPARg:RXRa IVT, anti-PPARg (NR concentration 270 nM, RXRa partner concentration 90 nM)	n
GGAACGAGGGCTAGTTGATAGCAGAGTTTGATGG	PPARg:RXRa IVT, anti-PPARg (NR concentration 270 nM, RXRa partner concentration 90 nM)	n
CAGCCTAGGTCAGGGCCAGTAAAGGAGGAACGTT	PPARg:RXRa IVT, anti-PPARg (NR concentration 270 nM, RXRa partner concentration 90 nM)	n
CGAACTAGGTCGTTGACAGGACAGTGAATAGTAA	PPARg:RXRa IVT, anti-PPARg (NR concentration 270 nM, RXRa partner concentration 90 nM)	y
ACTAGCAGTCCAAGGGTCACTCAAGATTAGTCCG	PPARg:RXRa IVT, anti-PPARg (NR concentration 270 nM, RXRa partner concentration 90 nM)	n
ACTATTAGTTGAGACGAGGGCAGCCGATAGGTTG	PPARg:RXRa IVT, anti-PPARg (NR concentration 270 nM, RXRa partner concentration 90 nM)	n
GATACAGGGTCAGCAAGAGGCCAGAGTATGGAAA	PPARg:RXRa IVT, anti-PPARg (NR concentration 270 nM, RXRa partner concentration 90 nM)	n
CCTACTGGGCCATTCAGAGGTCATTCATCATATG	PPARg:RXRa IVT, anti-PPARg (NR concentration 270 nM, RXRa partner concentration 90 nM)	y
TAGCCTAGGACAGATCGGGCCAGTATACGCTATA	PPARg:RXRa IVT, anti-PPARg (NR concentration 270 nM, RXRa partner concentration 90 nM)	n
ACTCGGAGGACAAAGGTCAGACCTACGCCAGTGA	PPARg:RXRa IVT, anti-PPARg (NR concentration 270 nM, RXRa partner concentration 90 nM)	n
GCTATTAGTTGAAAGGCCAACCGAATGATTCTCG	PPARg:RXRa IVT, anti-PPARg (NR concentration 270 nM, RXRa partner concentration 90 nM)	n
CCAGACATGTGAAAGGTAACTCAGTCTGGTACGC	PPARg:RXRa IVT, anti-PPARg (NR concentration 270 nM, RXRa partner concentration 90 nM)	n
TATACAGGGTCAAAGGCCACAGTACGAATGTCGA	PPARg:RXRa IVT, anti-PPARg (NR concentration 270 nM, RXRa partner concentration 90 nM)	y
ACTATCAGTTGAGACGAGGGCAACCGATAGGTTG	PPARg:RXRa IVT, anti-PPARg (NR concentration 270 nM, RXRa partner concentration 90 nM)	n
CGTCCAAGGTCAAGGTCAGTGCAAGAGACTCGAA	PPARg:RXRa IVT, anti-PPARg (NR concentration 270 nM, RXRa partner concentration 90 nM)	y
TCGAGTAGGTTAGGGGCATTCGGAATGGCGTCGA	PPARg:RXRa IVT, anti-PPARg (NR concentration 270 nM, RXRa partner concentration 90 nM)	n
TATACAGGGTCAAAGGCCTGAGTACGAATGTCGA	PPARg:RXRa IVT, anti-PPARg (NR concentration 270 nM, RXRa partner concentration 90 nM)	y
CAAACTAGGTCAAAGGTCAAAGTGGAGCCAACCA	PPARg:RXRa IVT, anti-PPARg (NR concentration 270 nM, RXRa partner concentration 90 nM)	y
TCTTGTAGATCAAAGATTAAGAAAGCCGAAGCCT	PPARg:RXRa IVT, anti-PPARg (NR concentration 270 nM, RXRa partner concentration 90 nM)	n
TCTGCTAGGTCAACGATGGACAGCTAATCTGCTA	PPARg:RXRa IVT, anti-PPARg (NR concentration 270 nM, RXRa partner concentration 90 nM)	y
TCGAGTAGGTTACAAATGGGGCATTCAGCTTTCT	PPARg:RXRa IVT, anti-PPARg (NR concentration 270 nM, RXRa partner concentration 90 nM)	n
TCGAGTCGGTTACCAATGGGGCATTCAGCTTTCT	PPARg:RXRa IVT, anti-PPARg (NR concentration 270 nM, RXRa partner concentration 90 nM)	n
TCATATAGGTAATCCAGGTGAAAGTCGGCATCTA	PPARg:RXRa IVT, anti-PPARg (NR concentration 270 nM, RXRa partner concentration 90 nM)	y
CCTGCTATGTCATGGTCAGCTAATCTACAGTATG	PPARg:RXRa IVT, anti-PPARg (NR concentration 270 nM, RXRa partner concentration 90 nM)	n
TAGCCTAGGTCAGATCGGGCCACTATACGCTATA	PPARg:RXRa IVT, anti-PPARg (NR concentration 270 nM, RXRa partner concentration 90 nM)	n
GCATAGAGGTAATACAAGGTGAAAGTCCGATTGT	PPARg:RXRa IVT, anti-PPARg (NR concentration 270 nM, RXRa partner concentration 90 nM)	n
CTCGAAAGGTCGGATGAGGTGAGTATACGGATAA	PPARg:RXRa IVT, anti-PPARg (NR concentration 270 nM, RXRa partner concentration 90 nM)	n
ATACCAAGGTAATCGTGAGGTCGTTGATACTAAC	PPARg:RXRa IVT, anti-PPARg (NR concentration 270 nM, RXRa partner concentration 90 nM)	n
TCTTGTAGATGAAGCAGGTTAAGAAAGCCTGAGT	PPARg:RXRa IVT, anti-PPARg (NR concentration 270 nM, RXRa partner concentration 90 nM)	n
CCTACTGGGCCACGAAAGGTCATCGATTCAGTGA	PPARg:RXRa IVT, anti-PPARg (NR concentration 270 nM, RXRa partner concentration 90 nM)	y
ACTAGCAGGCCAAGTTTGGGTGACTCAAACAAAG	PPARg:RXRa IVT, anti-PPARg (NR concentration 270 nM, RXRa partner concentration 90 nM)	n
CAAACTAGGCCACAGAGGTCAAAGTCCGTGCGTA	PPARg:RXRa IVT, anti-PPARg (NR concentration 270 nM, RXRa partner concentration 90 nM)	y
ACAATGAGGTTATTAAGATCAGGGAATTGCGGTC	PPARg:RXRa IVT, anti-PPARg (NR concentration 270 nM, RXRa partner concentration 90 nM)	n
TCAGACAGGTGAAGGAAACTCAGGTACGCAGTCG	PPARg:RXRa IVT, anti-PPARg (NR concentration 270 nM, RXRa partner concentration 90 nM)	n
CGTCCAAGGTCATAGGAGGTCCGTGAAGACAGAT	PPARg:RXRa IVT, anti-PPARg (NR concentration 270 nM, RXRa partner concentration 90 nM)	n
GCATATAGGTAATACAGGGTGAAAGTCCGATTGT	PPARg:RXRa IVT, anti-PPARg (NR concentration 270 nM, RXRa partner concentration 90 nM)	n
TCTAATAGTTGATTAGGGCAACCGAAACAGCGGA	PPARg:RXRa IVT, anti-PPARg (NR concentration 270 nM, RXRa partner concentration 90 nM)	n
